# Test system: T1, human IL-17A/F (human, UniProt Q16552 24-155; Q96PD4 31-163)
# T1 construct: Recombinant; biotinylated in the ELISA; also called hIL-17A/F; HuIL-17A/F
# T1 sequence (Q16552 24-155, chain 1 of 2): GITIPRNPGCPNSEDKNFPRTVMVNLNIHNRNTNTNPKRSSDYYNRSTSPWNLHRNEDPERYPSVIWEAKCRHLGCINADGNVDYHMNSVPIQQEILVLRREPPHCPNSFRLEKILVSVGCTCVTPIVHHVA
# T1 sequence (Q96PD4 31-163, chain 2 of 2): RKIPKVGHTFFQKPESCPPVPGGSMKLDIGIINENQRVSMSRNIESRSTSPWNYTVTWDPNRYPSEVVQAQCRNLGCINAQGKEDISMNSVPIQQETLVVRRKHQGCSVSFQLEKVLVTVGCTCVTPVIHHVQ
# Method notes: SPR (Biacore 3000), antibody captured by anti-Fc, antigen in solution;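 also: purified recombinant IL-17 antigens flowed over captured antibodies in HBS-EP buffer, global Langmuir one-to-one fit of association and dissociation phases, KD derived from koff over kon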
Measurement label: kon (M⁻¹ s⁻¹)

binder="IL17-h5C5.9 (antibody, V domains shown, IgG; constant regions not specified; also called h5C5.9 (VH.1b-Vk.1a)) VH: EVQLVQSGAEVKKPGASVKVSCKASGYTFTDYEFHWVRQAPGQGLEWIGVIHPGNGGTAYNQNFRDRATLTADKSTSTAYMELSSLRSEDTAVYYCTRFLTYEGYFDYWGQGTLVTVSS VL: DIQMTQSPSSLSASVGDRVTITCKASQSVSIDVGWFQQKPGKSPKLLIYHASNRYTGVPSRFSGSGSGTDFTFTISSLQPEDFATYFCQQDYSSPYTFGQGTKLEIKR" val=950000
binder="IL17-h5C5.21 (antibody, V domains shown, IgG; constant regions not specified; also called h5C5.21 (VH.1b-Vk.3c)) VH: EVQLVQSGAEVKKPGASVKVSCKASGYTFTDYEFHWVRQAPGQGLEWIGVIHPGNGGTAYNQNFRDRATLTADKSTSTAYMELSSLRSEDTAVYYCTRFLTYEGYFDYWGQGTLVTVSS VL: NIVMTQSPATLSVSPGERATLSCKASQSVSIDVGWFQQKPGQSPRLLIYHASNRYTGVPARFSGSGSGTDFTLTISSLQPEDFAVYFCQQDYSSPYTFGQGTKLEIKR" val=801000

Value source: patent US20140348834A1
